molecular target: Gal6S(b1-4)GlcNAc; test: glycan array binding signal (z-score within array); higher = stronger binding; settings: glycan notation: IUPAC condensed, linker removed
This excerpt belongs to a sample that is enriched for the strongest signals.
The following binders are shown together with reported glycan array binding signal (z-score) values.
Quantity kind: glycan array binding signal (z-score)

[[record]]
binder = "CALR truncated at D342 (Homo sapiens) (protein) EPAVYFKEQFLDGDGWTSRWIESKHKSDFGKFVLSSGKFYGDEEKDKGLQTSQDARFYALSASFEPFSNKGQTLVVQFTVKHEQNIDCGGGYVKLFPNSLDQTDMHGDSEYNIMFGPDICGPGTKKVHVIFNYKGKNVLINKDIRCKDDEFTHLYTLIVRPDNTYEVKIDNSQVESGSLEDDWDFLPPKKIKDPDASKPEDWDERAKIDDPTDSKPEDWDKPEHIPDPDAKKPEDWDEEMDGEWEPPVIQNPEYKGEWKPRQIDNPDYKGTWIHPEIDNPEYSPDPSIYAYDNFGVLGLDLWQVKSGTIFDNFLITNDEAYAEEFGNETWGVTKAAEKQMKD"
result = -1.33

[[record]]
binder = "OS9-MRH (Homo sapiens), Q13438 (protein) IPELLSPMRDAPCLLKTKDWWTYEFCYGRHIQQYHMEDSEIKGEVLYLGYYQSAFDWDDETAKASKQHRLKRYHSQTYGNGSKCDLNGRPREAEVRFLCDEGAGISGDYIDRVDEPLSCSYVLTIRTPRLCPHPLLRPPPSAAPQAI"
result = -0.312

[[record]]
binder = "Gal 10 (Homo sapiens), Q05315 (protein) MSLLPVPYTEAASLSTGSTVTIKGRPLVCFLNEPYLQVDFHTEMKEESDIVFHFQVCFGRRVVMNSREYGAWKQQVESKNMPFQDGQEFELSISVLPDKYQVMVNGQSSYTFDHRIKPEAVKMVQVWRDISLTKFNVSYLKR"
result = -0.568

[[record]]
binder = "ASAL (Allium sativum), P83886 (protein) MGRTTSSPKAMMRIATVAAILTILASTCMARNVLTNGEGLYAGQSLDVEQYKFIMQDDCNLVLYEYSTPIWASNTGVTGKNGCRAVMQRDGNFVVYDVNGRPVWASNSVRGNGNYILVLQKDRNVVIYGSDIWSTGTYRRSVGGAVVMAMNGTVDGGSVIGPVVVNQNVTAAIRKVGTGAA"
result = -0.193


Measured values drawn from the supplement of paper PMC8728848 for this set.
